Give measured MIC for each item. Keep answers brief.
System: E. coli (D22, lpxC mutant, drug-hypersensitive)
Test: microbe, parasite or virus in culture
Type: cell-based
Conditions: Escherichia coli, read-out: MIC Ec D22
Answers are plain numbers, in µg/mL.

Below, each entry is followed by its recorded MIC result.
Nc1nc(Nc2ccc3nc(-c4ccc(F)cc4)cc(N)c3c2)cc(N2CCCC(O)C2)n1 (stereo not drawn): 16
CN(C)C1CCN(c2cc(Nc3ccc4nc(-c5ccc(F)cc5)cc(N)c4c3)nc(N)n2)CC1: 32
Nc1nc(Nc2ccc3nc(-c4ccc(F)cc4)cc(N)c3c2)cc(N2CCC(CO)CC2)n1: 32

Batch request: MIC for each of the following compounds.
1. Nc1nc(Nc2ccc3nc(-c4ccc(F)cc4)cc(N)c3c2)cc(OCCO)n1
2. Cc1cccc(-c2cc(Nc3ccc4nc(-c5ccc(F)cc5)cc(N)c4c3)nc(N)n2)c1 [Compound 1, reference compound]
3. Nc1cc(-c2ccc(F)cc2)nc2ccc(Nc3cc(Cl)ncn3)cc12
4. CC(C)(C)OC(=O)NC1CCN(c2cc(Nc3ccc4nc(-c5ccc(F)cc5)cc(N)c4c3)nc(N)n2)CC1

## Output
16
4
64
4

Batch request: MIC for each of the following compounds.
1. Nc1nc(Nc2ccc3nc(-c4ccc(F)cc4)cc(N)c3c2)cc(N2CCNCC2)n1
2. CN(C)c1cc(Nc2ccc3nc(-c4ccc(F)cc4)cc(N)c3c2)nc(N)n1
3. CN1CCN(c2cc(Nc3ccc4nc(-c5ccc(F)cc5)cc(N)c4c3)nc(N)n2)CC1
4. Nc1nc(Nc2ccc3nc(-c4ccc(F)cc4)cc(N)c3c2)cc(=O)[nH]1
5. CC(C)N1CCN(c2cc(Nc3ccc4nc(-c5ccc(F)cc5)cc(N)c4c3)nc(N)n2)CC1

## Output
1: 4; 2: 8; 3: 16; 4: 16; 5: 32

----------
Assay: Cytotoxicity on the MRC-5 cell line (resazurin)
Assay type: cell-based
Conditions: human, MRC-5SV2 cells; MRC-5SV2, 3 days, resazurin
Give measured IC50 at 3 days for each item. Keep answers brief.
Answers are plain numbers, in µM.

Nc1cc(-c2ccc(F)cc2)nc2ccc(Nc3cc(N4CCNCC4)ncn3)cc12 [Compound 15]: 1.7

Batch request: IC50 at 3 days for each of the following compounds.
1. CC(C)(C)OC(=O)NCC1CCN(c2cc(Nc3ccc4nc(-c5ccc(F)cc5)cc(N)c4c3)nc(N)n2)CC1 [Compound 8g]
2. Nc1nc(Nc2ccc3nc(-c4ccc(F)cc4)ccc3c2)cc(N2CCNCC2)n1 [Compound 21]
3. Fc1ccc(-c2ccc3cc(Nc4cc(N5CCNCC5)ncn4)ccc3n2)cc1 [Compound 23]

## Output
1.4
8
7.9

----------
System: E. coli (ATCC 25922, wild-type)
Test: MIC on ESKAPE pathogens, E. coli wild-type
Format: cell-based
Conditions: Escherichia coli, ATCC25922; E. coli ATCC 25922, wild-type; read-out: MIC Ec WT
Give measured MIC for each item. Keep answers brief.
One number for each entry, in µg/mL.

Nc1nc(Nc2ccc3nc(-c4ccc(F)cc4)ccc3c2)cc(N2CCNCC2)n1: 16
Nc1nc(Nc2ccc3nc(-c4ccc(F)cc4)cc(N)c3c2)cc(N2CCCC(O)C2)n1 (centres unmarked): 32

Batch request: MIC for each of the following molecules.
1. Nc1nc(Nc2ccc3nc(-c4ccc(F)cc4)cc(N)c3c2)cc(N2CCNCC2)n1
2. CC(C)(C)OC(=O)NC1CCN(c2cc(Nc3ccc4nc(-c5ccc(F)cc5)cc(N)c4c3)nc(N)n2)CC1
3. NCC1CCN(c2cc(Nc3ccc4nc(-c5ccc(F)cc5)cc(N)c4c3)nc(N)n2)CC1
4. CN1CCN(c2cc(Nc3ccc4nc(-c5ccc(F)cc5)cc(N)c4c3)nc(N)n2)CC1

## Output
1: 8; 2: 64; 3: 64; 4: 128

----------
Molecular target: MsNDH-2 (Mycolicibacterium smegmatis)
Sequence (A0QYD6 1-457): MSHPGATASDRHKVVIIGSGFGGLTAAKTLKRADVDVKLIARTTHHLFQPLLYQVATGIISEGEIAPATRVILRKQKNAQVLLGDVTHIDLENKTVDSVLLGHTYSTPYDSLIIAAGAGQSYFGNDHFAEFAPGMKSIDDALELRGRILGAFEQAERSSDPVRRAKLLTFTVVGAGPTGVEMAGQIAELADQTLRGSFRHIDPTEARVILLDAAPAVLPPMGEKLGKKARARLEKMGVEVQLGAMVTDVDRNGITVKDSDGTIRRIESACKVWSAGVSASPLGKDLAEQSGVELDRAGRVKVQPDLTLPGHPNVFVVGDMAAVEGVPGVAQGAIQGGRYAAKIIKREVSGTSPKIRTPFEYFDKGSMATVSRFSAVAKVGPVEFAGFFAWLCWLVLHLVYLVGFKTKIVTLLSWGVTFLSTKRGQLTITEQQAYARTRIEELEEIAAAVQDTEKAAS
Experiment: Inhibition of MsNDH-2 (NADH oxidation with menadione, absorbance at 340 nm)
Format: biochemical, M. smegmatis
Conditions: 95% confidence interval in parentheses; 50 nM enzyme, 50 μM menadione; >100: no significant inhibition at 100 μM
pIC50: −log10 of the molar value.
Label rule met when pIC50 is at or above 5; otherwise label rule not met.

Example entries begin here.
CC(C)(C)OC(=O)NCC1CCN(c2cc(Nc3ccc4nc(-c5ccc(F)cc5)cc(N)c4c3)nc(N)n2)CC1 [Compound 8g]: rule met
CC(C)(C)OC(=O)NC1CCN(c2cc(Nc3ccc4nc(-c5ccc(F)cc5)cc(N)c4c3)nc(N)n2)CC1 [Compound 8i]: rule met
Nc1nc(Cl)cc(Nc2ccc3nc(-c4ccc(F)cc4)cc(N)c3c2)n1 [Compound 7]: rule met
Nc1nc(Nc2ccc3nc(-c4ccc(F)cc4)cc(N)c3c2)cc(=O)[nH]1 [Compound 12]: rule not met
CN1CCCC(COc2cc(Nc3ccc4nc(-c5ccc(F)cc5)cc(N)c4c3)nc(N)n2)C1 (centres unmarked) [Compound 9c]: rule not met

## Input Please tell me: is the compound CCOc1cc(Nc2ccc3nc(-c4ccc(F)cc4)cc(N)c3c2)nc(N)n1 [Compound 9a] at or over 5 in terms of pIC50?
## Output rule met

----------
Give measured MIC Kp WT for each item. Keep answers brief.
System: K. pneumonia (ATCC 13833, wild-type)
Assay: MIC on ESKAPE pathogens, K. pneumoniae

Nc1nc(Nc2ccc3nc(-c4ccc(F)cc4)cc(N)c3c2)cc(OCCO)n1 [Compound 9b]: 32 µg/mL
CC(C)N1CCN(c2cc(Nc3ccc4nc(-c5ccc(F)cc5)cc(N)c4c3)nc(N)n2)CC1 [Compound 8d]: 128 µg/mL

Batch request: MIC Kp WT for each of the following molecules.
1. CN(C)c1cc(Nc2ccc3nc(-c4ccc(F)cc4)cc(N)c3c2)nc(N)n1 [Compound 8k]
2. Nc1nc(Nc2ccc3nc(-c4ccc(F)cc4)cc(N)c3c2)cc(N2CCC(CO)CC2)n1 [Compound 8n]
3. Nc1ccc2nc(-c3ccc(F)cc3)cc(N)c2c1 [Compound 6, 2-(4-Fluorophenyl)quinoline-4,6-diamine]

## Output
1: 64 µg/mL; 2: >64 µg/mL; 3: >64 µg/mL

Batch request: MIC Kp WT for each of the following molecules.
1. CN(CCO)c1cc(Nc2ccc3nc(-c4ccc(F)cc4)cc(N)c3c2)nc(N)n1 [Compound 8l]
2. NCC1CCN(c2cc(Nc3ccc4nc(-c5ccc(F)cc5)cc(N)c4c3)nc(N)n2)CC1 [Compound 8h]
3. Nc1nc(Cl)cc(Nc2ccc3nc(-c4ccc(F)cc4)cc(N)c3c2)n1 [Compound 7]

## Output
1. >64 µg/mL
2. >128 µg/mL
3. >128 µg/mL

----------
Give measured MIC Kp WT for each item. Keep answers brief.
System: K. pneumonia (ATCC 13833, wild-type)
Assay: MIC on ESKAPE pathogens, K. pneumoniae
Numbers only, in µg/mL.

Below, each entry is followed by its recorded MIC Kp WT result.
CC(C)(C)OC(=O)NC1CCN(c2cc(Nc3ccc4nc(-c5ccc(F)cc5)cc(N)c4c3)nc(N)n2)CC1: 64
CCOc1cc(Nc2ccc3nc(-c4ccc(F)cc4)cc(N)c3c2)nc(N)n1: 64
CC(C)(C)OC(=O)NCC1CCN(c2cc(Nc3ccc4nc(-c5ccc(F)cc5)cc(N)c4c3)nc(N)n2)CC1: 128
Nc1nc(Nc2ccc3nc(-c4ccc(F)cc4)cc(N)c3c2)cc(N2CCOCC2)n1: 64
Nc1nc(Nc2ccc3nc(-c4ccc(F)cc4)cc(N)c3c2)cc(N2CCN(CCO)CC2)n1: 128
Fc1ccc(-c2ccc3cc(Nc4cc(N5CCNCC5)ncn4)ccc3n2)cc1: 64

# context switch: different molecule, same MIC Kp WT
## Input Form entry - test system: K. pneumonia (ATCC 13833, wild-type); read-out: MIC Kp WT; molecule: Nc1nc(Nc2ccc3nc(-c4ccc(F)cc4)cc(N)c3c2)cc(=O)[nH]1
## Output 32

----------
Target: MtNDH-2 (Mycobacterium tuberculosis)
Sequence (P95160 2-463, added parts left off): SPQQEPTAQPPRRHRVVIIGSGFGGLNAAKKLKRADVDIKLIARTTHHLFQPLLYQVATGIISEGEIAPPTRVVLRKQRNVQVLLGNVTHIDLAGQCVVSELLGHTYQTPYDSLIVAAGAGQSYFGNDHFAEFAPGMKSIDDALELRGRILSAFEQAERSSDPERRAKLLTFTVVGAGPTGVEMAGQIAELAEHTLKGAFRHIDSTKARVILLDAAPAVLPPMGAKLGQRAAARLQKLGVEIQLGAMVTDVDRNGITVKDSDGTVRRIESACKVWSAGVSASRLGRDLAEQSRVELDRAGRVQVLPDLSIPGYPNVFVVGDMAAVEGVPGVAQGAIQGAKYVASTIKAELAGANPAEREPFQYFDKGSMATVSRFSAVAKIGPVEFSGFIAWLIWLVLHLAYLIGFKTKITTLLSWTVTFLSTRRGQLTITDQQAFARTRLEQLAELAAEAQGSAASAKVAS
Experiment: biochemical
Set-up: species or system M. tuberculosis
Conditions: MtNDH-2 IC50
MEASURE NAME: pIC50
Give bare numbers, as −log10 of the molar value.

Below, each entry is followed by its recorded pIC50 result.
CC(C)N1CCN(c2cc(Nc3ccc4nc(-c5ccc(F)cc5)cc(N)c4c3)nc(N)n2)CC1: 5.44
CC(C)(C)OC(=O)NC1CCN(c2cc(Nc3ccc4nc(-c5ccc(F)cc5)cc(N)c4c3)nc(N)n2)CC1: 6.36
Nc1cc(-c2ccc(F)cc2)nc2ccc(Nc3cc(Cl)ncn3)cc12: 5.82

# context switch: different compound, same pIC50
## Input Which value of pIC50 has been reported for CNCCN(C)c1cc(Nc2ccc3nc(-c4ccc(F)cc4)cc(N)c3c2)nc(N)n1 in the records?
## Output 4.80
